The reader will find reported solubility values listed item by item below.
Experiment Notes: Solubility at pH 7.4
Assay type: physicochemical
Measurement Context: buffer

{"Smiles Data": "NC(=O)c1nc(-c2ccccc2)oc1N", "solubility [µg/mL]": 32}
{"Smiles Data": "NC(=O)c1sc2ncccc2c1N", "solubility [µg/mL]": 32}
{"Smiles Data": "NC(=O)c1sc(-c2ccccc2)cc1N", "solubility [µg/mL]": 10}
{"Smiles Data": "NC(=O)c1nc(-c2ccc(C(F)(F)F)cc2)oc1N", "solubility [µg/mL]": 13}
{"Smiles Data": "Cc1cc(C)c2c(N)c(C(N)=O)sc2n1", "solubility [µg/mL]": 24}
{"Smiles Data": "NC(=O)c1sc(-c2ccc(F)cc2)cc1N", "solubility [µg/mL]": 7}

====

Test system: HeLa
Experiment Notes: Viability of HeLa cells at 50 uM by alomar blue assay
Assay type: functional, Homo sapiens

{"Smiles Data": "NC(=O)c1sc(-c2ccccc2)cc1N", "Activity, %": 100}
{"Smiles Data": "NC(=O)c1nc(-c2ccccc2)oc1N", "Activity, %": 100}
{"Smiles Data": "NC(=O)c1sc(-c2ccc(F)cc2)cc1N", "Activity, %": 100}
{"Smiles Data": "NC(=O)c1nc(-c2ccc(C(F)(F)F)cc2)oc1N", "Activity, %": 68}
{"Smiles Data": "NC(=O)c1sc2ncccc2c1N", "Activity, %": 93}
{"Smiles Data": "Cc1cc(C)c2c(N)c(C(N)=O)sc2n1", "Activity, %": 68}

====

For UniProt P11712, measured IC50 is reported for the entries below.
Sequence (P11712 whole entry): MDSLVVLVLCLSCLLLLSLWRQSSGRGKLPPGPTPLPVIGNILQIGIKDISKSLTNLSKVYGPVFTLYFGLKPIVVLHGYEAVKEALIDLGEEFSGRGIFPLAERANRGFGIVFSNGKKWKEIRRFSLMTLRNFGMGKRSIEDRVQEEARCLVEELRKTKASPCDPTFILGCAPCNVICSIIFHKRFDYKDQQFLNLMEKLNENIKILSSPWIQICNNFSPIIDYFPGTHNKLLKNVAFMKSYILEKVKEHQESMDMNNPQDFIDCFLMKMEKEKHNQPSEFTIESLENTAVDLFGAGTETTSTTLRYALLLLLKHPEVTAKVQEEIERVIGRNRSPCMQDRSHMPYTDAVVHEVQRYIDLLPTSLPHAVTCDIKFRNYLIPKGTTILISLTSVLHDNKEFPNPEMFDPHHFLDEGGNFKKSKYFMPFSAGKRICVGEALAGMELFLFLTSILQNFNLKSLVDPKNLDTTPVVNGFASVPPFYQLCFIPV

{"Smiles Data": "NC(=O)c1nc(-c2ccccc2)oc1N", "Experimental System": "UniProt P11712", "Limit Qualifier": ">", "IC50, µM": 50}
{"Smiles Data": "NC(=O)c1sc(-c2ccccc2)cc1N", "Experimental System": "UniProt P11712", "Limit Qualifier": "=", "IC50, µM": 26}
{"Smiles Data": "NC(=O)c1sc(-c2ccc(F)cc2)cc1N", "Experimental System": "UniProt P11712", "Limit Qualifier": "=", "IC50, µM": 7}
{"Smiles Data": "Cc1cc(C)c2c(N)c(C(N)=O)sc2n1", "Experimental System": "UniProt P11712", "Limit Qualifier": ">", "IC50, µM": 30}
{"Smiles Data": "NC(=O)c1nc(-c2ccc(C(F)(F)F)cc2)oc1N", "Experimental System": "UniProt P11712", "Limit Qualifier": ">", "IC50, µM": 30}

====

Experimental System: Cytochrome P450 3A4 (Homo sapiens, UniProt P08684)
Sequence (P08684 whole entry): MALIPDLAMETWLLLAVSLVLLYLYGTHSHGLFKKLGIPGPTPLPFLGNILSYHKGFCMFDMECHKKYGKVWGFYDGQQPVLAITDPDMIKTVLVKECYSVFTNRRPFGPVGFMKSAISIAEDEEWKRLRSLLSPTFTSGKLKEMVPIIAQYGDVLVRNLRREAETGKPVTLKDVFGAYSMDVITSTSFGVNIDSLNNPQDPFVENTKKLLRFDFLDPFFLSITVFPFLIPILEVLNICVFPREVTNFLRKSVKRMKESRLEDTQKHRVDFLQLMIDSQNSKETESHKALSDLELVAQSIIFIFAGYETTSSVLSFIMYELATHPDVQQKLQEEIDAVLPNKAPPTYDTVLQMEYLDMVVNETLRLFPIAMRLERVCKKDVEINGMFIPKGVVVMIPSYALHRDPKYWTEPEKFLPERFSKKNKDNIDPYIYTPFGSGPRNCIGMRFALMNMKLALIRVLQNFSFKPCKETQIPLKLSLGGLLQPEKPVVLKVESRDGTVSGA
Experiment Notes: Inhibition of CYP3A4
Assay type: ADME
pIC50: −log10 of the molar value.

{"Smiles Data": "NC(=O)c1nc(-c2ccc(C(F)(F)F)cc2)oc1N", "pIC50": "< 4.52"}
{"Smiles Data": "Cc1cc(C)c2c(N)c(C(N)=O)sc2n1", "pIC50": "< 4.52"}

====

Experimental System: Inhibitor of nuclear factor kappa-B kinase subunit beta (Homo sapiens)
Sequence (O14920 whole entry): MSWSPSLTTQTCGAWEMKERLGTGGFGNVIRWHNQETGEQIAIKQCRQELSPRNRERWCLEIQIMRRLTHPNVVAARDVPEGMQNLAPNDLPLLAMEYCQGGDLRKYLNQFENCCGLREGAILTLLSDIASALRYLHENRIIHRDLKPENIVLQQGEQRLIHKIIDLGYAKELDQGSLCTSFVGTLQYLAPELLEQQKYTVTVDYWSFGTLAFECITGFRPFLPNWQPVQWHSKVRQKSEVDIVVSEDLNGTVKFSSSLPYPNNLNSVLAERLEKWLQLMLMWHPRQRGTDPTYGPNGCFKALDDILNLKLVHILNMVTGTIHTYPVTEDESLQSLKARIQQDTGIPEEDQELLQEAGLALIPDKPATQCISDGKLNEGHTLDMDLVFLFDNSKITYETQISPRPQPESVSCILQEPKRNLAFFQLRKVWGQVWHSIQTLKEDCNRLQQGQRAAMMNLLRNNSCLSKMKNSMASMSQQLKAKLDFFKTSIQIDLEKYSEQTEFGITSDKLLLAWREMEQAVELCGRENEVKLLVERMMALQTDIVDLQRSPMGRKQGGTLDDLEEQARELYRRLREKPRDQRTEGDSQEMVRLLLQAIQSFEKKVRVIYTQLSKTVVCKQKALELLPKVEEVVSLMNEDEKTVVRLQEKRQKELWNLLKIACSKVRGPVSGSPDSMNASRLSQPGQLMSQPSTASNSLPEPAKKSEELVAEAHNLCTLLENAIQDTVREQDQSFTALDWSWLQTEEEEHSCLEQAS
Note to self: class labels come from recorded IC50, ranges listed here: low range = under 6 µM, mid range = from 6 µM up to 10 µM, high range = 10 µM and over

{"Smiles Data": "Cc1cc(COc2ccccc2)c2c(N)c(C(N)=O)sc2n1", "Category Label": "mid range"}
{"Smiles Data": "CCC(=O)Nc1cc(-c2ccccc2)sc1C(N)=O", "Category Label": "high range"}
{"Smiles Data": "NC(=O)c1nc(-c2cccnc2)oc1N", "Category Label": "high range"}
{"Smiles Data": "NC(=O)c1c(N)nc2ccc(Cl)cc2c1-c1ccccc1", "Category Label": "high range"}
{"Smiles Data": "Cc1cc(C)c2c(N)c(C(N)=O)sc2n1", "Category Label": "low range"}
{"Smiles Data": "NC(=O)c1sc(-c2ccc(Cl)cc2)cc1N", "Category Label": "mid range"}
{"Smiles Data": "COc1ccc(OCc2cc(C)nc3sc(C(N)=O)c(N)c23)cc1", "Category Label": "high range"}
{"Smiles Data": "NC(=O)c1cc(-c2ccccc2)ccc1N", "Category Label": "high range"}
{"Smiles Data": "Cc1ccccc1-c1nc(C(N)=O)c(N)o1", "Category Label": "mid range"}
{"Smiles Data": "Cc1cc(C(=O)O)c2c(N)c(C(N)=O)sc2n1", "Category Label": "high range"}
{"Smiles Data": "NC(=O)c1nc(-c2ccccc2)oc1N", "Category Label": "high range"}
{"Smiles Data": "O=c1[nH]cnc2cc(-c3ccccc3)sc12", "Category Label": "high range"}
{"Smiles Data": "NC(=O)c1cc2ccccc2nc1N", "Category Label": "mid range"}
{"Smiles Data": "NC(=O)c1sc2ncccc2c1N", "Category Label": "mid range"}
{"Smiles Data": "COc1ccc(-c2cc(N)c(C(N)=O)s2)cc1", "Category Label": "low range"}
{"Smiles Data": "Cc1cc(CC(C)C)nc2sc(C(N)=O)c(N)c12", "Category Label": "low range"}
{"Smiles Data": "NC(=O)c1ccc(-c2ccc(Cl)cc2)s1", "Category Label": "high range"}
{"Smiles Data": "NC(=O)c1nc(-c2cc3ccccc3s2)oc1N", "Category Label": "low range"}
{"Smiles Data": "COC(=O)c1sc(-c2ccccc2)cc1N", "Category Label": "high range"}
{"Smiles Data": "CC(C)(C)c1ccc(-c2nc(C(N)=O)c(N)o2)cc1", "Category Label": "mid range"}
{"Smiles Data": "NC(=O)c1nc(-c2cccc(Cl)c2)oc1N", "Category Label": "high range"}
{"Smiles Data": "Cc1nc2sc(C(N)=O)c(N)c2c(C)c1Cl", "Category Label": "high range"}

====

For Inhibitor of nuclear factor kappa-B kinase subunit beta (Homo sapiens), measured IC50 is reported for the entries below.
Endpoint: IC50

{"Smiles Data": "CN(C)c1cc(-c2ccc(F)cc2)sc1C(N)=O", "Experimental System": "Inhibitor of nuclear factor kappa-B kinase subunit beta (Homo sapiens)", "Endpoint": "IC50", "Experimental Result": "> 23.5 µM"}
{"Smiles Data": "NC(=O)c1nc(C2CCCCC2)oc1N", "Experimental System": "Inhibitor of nuclear factor kappa-B kinase subunit beta (Homo sapiens)", "Endpoint": "IC50", "Experimental Result": "> 32.5 µM"}
{"Smiles Data": "NC(=O)c1nc(-c2c(Cl)cc(Cl)cc2Cl)oc1N", "Experimental System": "Inhibitor of nuclear factor kappa-B kinase subunit beta (Homo sapiens)", "Endpoint": "IC50", "Experimental Result": "> 39.5 µM"}
{"Smiles Data": "NC(=O)Nc1c(C(N)=O)sc2ncccc12", "Experimental System": "Inhibitor of nuclear factor kappa-B kinase subunit beta (Homo sapiens)", "Endpoint": "IC50", "Experimental Result": "> 50 µM"}

====

Experimental System: Inhibitor of nuclear factor kappa-B kinase subunit alpha (Homo sapiens)
Sequence (O15111 whole entry): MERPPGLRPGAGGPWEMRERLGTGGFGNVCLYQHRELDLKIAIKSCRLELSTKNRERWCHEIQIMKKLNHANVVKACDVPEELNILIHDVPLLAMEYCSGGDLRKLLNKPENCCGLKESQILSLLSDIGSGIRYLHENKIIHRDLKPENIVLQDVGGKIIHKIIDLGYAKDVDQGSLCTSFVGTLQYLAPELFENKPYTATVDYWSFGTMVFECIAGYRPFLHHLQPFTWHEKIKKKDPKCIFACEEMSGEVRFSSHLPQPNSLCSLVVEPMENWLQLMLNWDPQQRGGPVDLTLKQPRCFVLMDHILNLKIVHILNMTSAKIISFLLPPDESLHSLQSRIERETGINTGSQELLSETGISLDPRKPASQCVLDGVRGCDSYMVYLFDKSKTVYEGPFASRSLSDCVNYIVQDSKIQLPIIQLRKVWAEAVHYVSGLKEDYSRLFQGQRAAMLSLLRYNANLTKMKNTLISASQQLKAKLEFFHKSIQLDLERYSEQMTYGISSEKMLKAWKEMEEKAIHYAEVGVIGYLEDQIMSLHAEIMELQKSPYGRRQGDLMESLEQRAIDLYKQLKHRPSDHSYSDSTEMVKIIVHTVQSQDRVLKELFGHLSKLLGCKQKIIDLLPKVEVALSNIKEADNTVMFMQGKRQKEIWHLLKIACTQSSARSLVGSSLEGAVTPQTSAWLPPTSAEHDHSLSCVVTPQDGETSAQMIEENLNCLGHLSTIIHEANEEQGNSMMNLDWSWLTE
Experiment Notes: Inhibition of IKK alpha
pIC50: −log10 of the molar value.
Endpoint: pIC50

{"Smiles Data": "NC(=O)c1nc(-c2ccccc2)oc1N", "Experimental System": "Inhibitor of nuclear factor kappa-B kinase subunit alpha (Homo sapiens)", "Experimental Result": "< 4.52"}
{"Smiles Data": "NC(=O)c1nc(-c2ccc(C(F)(F)F)cc2)oc1N", "Experimental System": "Inhibitor of nuclear factor kappa-B kinase subunit alpha (Homo sapiens)", "Experimental Result": "< 4.52"}
{"Smiles Data": "NC(=O)c1sc(-c2ccccc2)cc1N", "Experimental System": "Inhibitor of nuclear factor kappa-B kinase subunit alpha (Homo sapiens)", "Experimental Result": "< 4.52"}

// provenance: ChEMBL document CHEMBL1147674
